Data provenance: patent US8846659B2

Measured Target: HIV integrase (Human immunodeficiency virus type 1 group M subtype B)
Protocol Description: HIV-integrase inhibition activity: inhibition of [3H]BMS-641493 binding to enzyme-SPA bead complexes
Settings: competition with [3H]BMS-641493, enzyme-SPA bead complexes; read-out: Activity (Ki toward integrase)
Counter-ions that a name gives are not always drawn.
Entries and their measured Ki follow.

Compound	Ki
Cc1cc(Cc2c[nH]c(-c3nc4n(c(=O)c3O)CC3CCC4(NC(=O)C(C)(C)n4cncn4)CC3)n2)ccc1F [Example 14, trifluoroacetate salt]	41 nM
Cc1cc(Cc2cnc(-c3nc4n(c(=O)c3O)CC3CCC4(NC(=O)c4ccn(C)n4)CC3)[nH]2)ccc1F	16 nM
O=C(NC12CCC(CC1)Cn1c2nc(-c2ncc(Cc3ccc(F)cc3)[nH]2)c(O)c1=O)C(=O)N1CCCC1	122 nM
Cc1cc(Cc2cnc(-c3nc4n(c(=O)c3O)CC3CCC4(NC(=O)c4cccnc4)CC3)[nH]2)ccc1F [Example 11, trifluoroacetate salt]	19 nM
